Source: PubChem BioAssay AID1996

# test.conditions: buffer; pH 7.4; 200.0 µM
assay.endpoint: solubility kinetic (µg/mL)
A number alone suffices; assume µg/mL.

[in] Could you tell me which solubility kinetic is on file for "O=C(NC(=O)c1ccc(C(F)(F)F)cc1)Nc1ccc(-c2cnco2)cc1" ?
[out] 2.8

[in] Requested field: solubility kinetic. Item: O=C(NC1CCCC1)C(c1cc2c(cc1[N+](=O)[O-])OCO2)N1CCCC1 (stereo unspecified)
[out] 40.6

----------
# test.conditions: buffer; pH 7.4; 200.0 µM
assay.endpoint: solubility kinetic

Cc1ccn2cc(CNS(=O)(=O)c3cccs3)nc2c1: > 46.1 µg/mL
Cc1cccc(C)c1NC(=O)COC(=O)C1C2CC3OC(=O)C1C3C2 (stereo not given): > 51.5 µg/mL
O=C(c1ccccc1)c1ccc(OCC(=O)N2CCOCC2)cc1: > 48.8 µg/mL
CC1(C)CC(=O)N(c2ccc(C#N)cc2)C(=O)C1: > 36.3 µg/mL

[in] What value of measured solubility kinetic is listed for "CN(C)C(=O)COC(=O)c1ccccc1NC(=O)c1ccco1" ?
[out] > 47.4 µg/mL

----------
# test.conditions: buffer; pH 7.4; 200.0 µM
Consider the following compounds and their measured solubility kinetic readings.
Give the value in µg/mL but do not write µg/mL after it.

As a guide, the following entries are already answered.
Oc1cc2c(cc1CN1CCN(c3ccc(F)cc3)CC1)OCO2: 5.7
Cc1cc(Cl)cc(C)c1OCCNCc1ccccc1.O=C(O)C(=O)O: 44.5
CCOc1ccc(NC(=O)CN(C)C(=O)C2CCCC2)cc1OCC: 37.6
Cc1onc(-c2ccccc2)c1CNC(=O)C1COc2ccccc2O1 (stereo not drawn): 46.2
Cc1nc([N+](=O)[O-])cn1CC(=O)Nc1ccc(Cl)cc1: 6.1

[in] Record request: solubility kinetic value, item COc1ccc(C(=O)CN2C(=O)NC3(CCc4ccccc43)C2=O)cc1 (stereo not drawn)
[out] 25.3

[in] Find the recorded solubility kinetic belonging to "CCCC1(CCC)NC(=O)N(CC(=O)Nc2ccc(Cl)c(S(=O)(=O)N3CCOCC3)c2)C1=O" and report it.
[out] 73.2

[in] I would be grateful if you could share the reported solubility kinetic for "O=C(/C=C/c1cccc([N+](=O)[O-])c1)Nc1ccccn1" .
[out] 0.7

[in] Bench note: what solubility kinetic did "COc1ccc(C(=O)CC(=O)C(=O)Nc2cc(C)ccc2C)cc1" show?
[out] 11.2

[in] Please look up its solubility kinetic: "Cc1cc(C)c2c(N)c(C(=O)Nc3ccccc3F)sc2n1"
[out] 0.4

[in] Entry "O=C1N(CCCl)c2ccc(Br)cc2C12OCCO2" has what solubility kinetic?
[out] 48.1

[in] // lookup solubility kinetic for "CC(=O)Nc1cccc(-c2cc(-c3c(Cl)cccc3Cl)no2)c1"
[out] 3.7

----------
# test.conditions: buffer; pH 7.4; 200.0 µM
assay.endpoint: solubility kinetic

Here is how some compounds turned out for solubility kinetic.
COCCN=C(NS(=O)(=O)c1cccs1)c1ccccc1Cl: > 53.8 µg/mL
O=C(O)CCC(=O)Nc1cccc(-c2nc3ccccc3o2)c1: > 46.5 µg/mL
Cn1cccc1C1CCCN1CC(=O)Nc1ccc(F)c(F)c1F (centres undefined): > 50.6 µg/mL
O=c1c2ccccc2nc(-c2ccccc2)n1O: > 35.7 µg/mL
CC(C)[C@H](NC(=O)c1ccccc1Cl)C(=O)OCC(=O)N1CCCCC1: > 57.1 µg/mL
CN(C)/C=C/C(=O)c1ccc(OCCN(C)c2ccccn2)cc1: > 48.8 µg/mL
O=C(CSc1nnc2ccccn12)Nc1ccc(N2CCOCC2)cc1: > 55.4 µg/mL
CCc1nc2ccccc2c(=O)n1-c1ccccc1OC: > 42 µg/mL

[in] Look up solubility kinetic: CC(=O)C1=C(C)NC(=O)CC1c1ccc(F)cc1 (centres undefined)
[out] > 37.1 µg/mL

[in] Data request, read-out solubility kinetic, for "CCOC(=O)c1cccc(NC(=O)N2CCOCC2)c1"
[out] > 41.7 µg/mL

[in] // returns reported solubility kinetic for input "CCOc1cc(/C=C2\NC(=O)NC2=O)cc([N+](=O)[O-])c1O"
[out] > 44 µg/mL

[in] Recorded solubility kinetic for "O=Cc1cn(Cc2ccc(Br)cc2)c2ccccc12" , please?
[out] < 0.7 µg/mL

[in] Give its solubility kinetic value. Item: "O=S(=O)(Nc1cccc(CO)c1)c1cccs1"
[out] > 40.4 µg/mL

----------
Here, each record is paired with measured log10 of solubility kinetic data.
# test.conditions: buffer; pH 7.4; 200.0 µM
Plainly stated, the numbers are log10 of solubility kinetic given in µg/mL.

COc1ccc(OCC(=O)N2CCc3ccccc3C2)cc1: 1.47
Cc1ccc(C(=O)Nc2ccc(S(=O)(=O)N3CCCC3)cc2)cc1: 0.20
COc1ccc(CSc2nc(C)[nH]c2[N+](=O)[O-])cc1[N+](=O)[O-]: 0.51
Cc1ccc(C(=O)OCC(=O)NC2CCCc3ccccc32)o1 (stereo not drawn): 1.12
CC1CC(C)CN(C(=O)CCNC(=O)c2ccccc2Cl)C1 (stereo not drawn): 1.68
Cc1ccc(C(=O)Cn2cc([N+](=O)[O-])nc2C)cc1: 1.07
FC(F)Oc1ccccc1NC(=S)Nc1cccnc1: 1.64
CC(=O)Nc1cccc(NC(=O)Nc2cccc3ccccc23)c1: -0.10

--- query ---
[in] Fill in the blank: the reported log10 of solubility kinetic of "O=C(NCCCCc1ccccc1)c1cccc([N+](=O)[O-])c1" is ____.
[out] 0.93

----------
# test.conditions: buffer; pH 7.4; 200.0 µM
Entries and their measured solubility kinetic follow.

Cc1csc(=O)n1CC(=O)Nc1ccc(S(C)(=O)=O)cc1: > 49 µg/mL
COc1ccc(NC(=O)NCc2cccnc2)c(OC)c1: > 43.1 µg/mL

Now, please, on to the next compound.
[in] Would you kindly share the measured solubility kinetic for "CC(=O)Nc1ccccc1" ?
[out] > 20.3 µg/mL

----------
# test.conditions: buffer; pH 7.4; 200.0 µM
assay.endpoint: solubility kinetic (µg/mL)
I only need the number, in µg/mL, no unit after it.

The examples below pair each entry with its known result.
CCCOc1ccc(N2C(=O)C3C4C=CC(CC4)C3C2=O)cc1 (stereo unspecified): 4.6
Oc1ccc(N2Cc3ccccc3C2)cc1: 9.9
COCCSc1ccccc1C(=O)N1CCc2ccccc21: 44.5

[in] Look up solubility kinetic for this molecule: "CC(C)[C@H](NC(=O)c1ccccc1Cl)C(=O)Nc1ccc(S(=O)(=O)Nc2nccs2)cc1"
[out] 14.6

----------
# test.conditions: buffer; pH 7.4; 200.0 µM
Form field: solubility kinetic (one value per entry).

N#C/C(C(N)=O)=C1/CCCN1Cc1ccccc1: > 36.2 µg/mL
c1ccc(N2CCN(Cc3cnc(N4CCOCC4)s3)CC2)cc1: > 51.7 µg/mL
O=C(CN1CCN(c2ccccn2)CC1)Nc1ccc(F)cc1F: > 49.9 µg/mL

[in] Field request: solubility kinetic | item: "CCN1CCN(C(=S)NC(=O)c2cccs2)CC1"
[out] > 42.5 µg/mL

----------
# test.conditions: buffer; pH 7.4; 200.0 µM
assay.endpoint: solubility kinetic

[in] Return reported solubility kinetic; argument: O=C1c2cccc3c2N(CCC3)C(=O)C1(F)c1ccccc1 (configuration not stated)
[out] > 44.3 µg/mL

----------
Overview of reported solubility kinetic across a group of compounds:
# test.conditions: buffer; pH 7.4; 200.0 µM

The cases that follow already have their solubility kinetic on record.
CCCN1CCC(N2CCCC(C(=O)O)C2)CC1.Cl (stereo not drawn): > 49.1 µg/mL
COc1ccc(NC(=O)CN(C)CC(=O)NCC2CCCCC2)cc1: > 52.1 µg/mL

With those in mind, consider the next compound.
[in] Data request, read-out solubility kinetic, for "Cc1cc(C)c(S(=O)(=O)c2cccc(C)c2C)c(=O)[nH]1"
[out] > 43.7 µg/mL

----------
# test.conditions: buffer; pH 7.4; 200.0 µM
// reported solubility kinetic per item

O=C(O)c1cc(S(=O)(=O)N2CCCCC2)ccc1N1CCOCC1: > 53.2 µg/mL
COC(=O)c1cc(C(=O)OCC(=O)N2CCCCC2)cc([N+](=O)[O-])c1: > 52.5 µg/mL
O=C(COC(=O)c1ccncc1)c1ccccc1: > 36.2 µg/mL

[in] So what does the record say about solubility kinetic for "CS(=O)(=O)c1ccc(C(=O)OCC(=O)Nc2cccnc2Cl)cc1[N+](=O)[O-]" ?
[out] > 62.1 µg/mL

[in] What value of solubility kinetic has been recorded for this entry: "CC(=O)NCCc1nc2cc(NC(=O)c3ccccc3)ccc2n1C"
[out] > 50.5 µg/mL

----------
# test.conditions: buffer; pH 7.4; 200.0 µM
assay.endpoint: solubility kinetic (µg/mL)
Express your answer in µg/mL, writing the number without its unit.

CC(=O)C1=C(C)NC2=C(C(=O)c3ccccc32)C1c1ccccc1 (centres undefined): 0.8
Cc1cc(C)c2cc(C(=O)Nc3ccccc3)[nH]c2c1: 1.2

[in] Fill in the blank: the reported solubility kinetic of "COC(=O)c1ccc(/C=C(\C#N)c2ccccn2)cc1" is ____.
[out] 1.8

[in] // returns reported solubility kinetic for input "Cc1cc(C)c2c(N)c(C(=O)Nc3ccc(F)cc3)sc2n1"
[out] 1.1

[in] Name the reported solubility kinetic value associated with the molecule COc1ccc(C(=O)NC(=O)COC(=O)C2CC2C)cc1 (centres undefined)
[out] 13.7
